Hello, the source for this data is paper PMC5748833, in case you need it.

- SYSTEM TESTED: soybean lipoxygenase (Glycine max, UniProt P08170)
- Sequence (P08170 whole entry): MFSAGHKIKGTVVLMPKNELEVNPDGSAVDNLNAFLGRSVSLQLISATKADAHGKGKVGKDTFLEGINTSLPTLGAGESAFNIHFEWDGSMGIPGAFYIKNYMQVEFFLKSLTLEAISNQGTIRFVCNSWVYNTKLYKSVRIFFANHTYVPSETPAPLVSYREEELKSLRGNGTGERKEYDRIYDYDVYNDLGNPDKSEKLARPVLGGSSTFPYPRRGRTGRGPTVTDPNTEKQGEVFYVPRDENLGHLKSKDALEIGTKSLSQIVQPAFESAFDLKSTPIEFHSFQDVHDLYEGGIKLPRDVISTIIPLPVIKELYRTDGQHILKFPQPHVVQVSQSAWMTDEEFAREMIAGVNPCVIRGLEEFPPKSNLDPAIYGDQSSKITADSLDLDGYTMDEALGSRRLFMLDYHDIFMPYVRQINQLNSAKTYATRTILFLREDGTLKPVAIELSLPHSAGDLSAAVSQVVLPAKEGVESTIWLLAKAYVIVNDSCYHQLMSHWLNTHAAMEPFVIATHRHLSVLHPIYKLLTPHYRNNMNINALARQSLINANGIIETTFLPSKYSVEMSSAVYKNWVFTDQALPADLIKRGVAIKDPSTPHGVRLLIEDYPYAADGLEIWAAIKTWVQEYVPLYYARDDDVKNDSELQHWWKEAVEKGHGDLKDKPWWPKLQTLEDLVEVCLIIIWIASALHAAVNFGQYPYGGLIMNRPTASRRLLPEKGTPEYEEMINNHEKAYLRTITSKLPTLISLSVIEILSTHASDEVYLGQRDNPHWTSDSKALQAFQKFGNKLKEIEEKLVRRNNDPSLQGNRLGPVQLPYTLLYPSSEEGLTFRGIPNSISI
Quick reference for IC50 among some compounds

{"COMPOUND": "O=c1cc(OCC2CC(Cn3cnc4c(N5CCCCC5)ncnc43)=NO2)c2ccccc2o1 (stereo not shown)", "SYSTEM TESTED": "soybean lipoxygenase (Glycine max, UniProt P08170)", "IC50": "53 µM"}
{"COMPOUND": "O=c1ccc2ccc(OCC3=NOC(n4cnc5c(N6CCCCC6)ncnc54)C3)cc2o1 (stereo not shown) [18a]", "SYSTEM TESTED": "soybean lipoxygenase (Glycine max, UniProt P08170)", "IC50": "90 µM"}
{"COMPOUND": "O=C(Oc1ccc2oc(=O)ccc2c1)C1CC(Cn2cnc3c(N4CCCCC4)ncnc32)=NO1 (stereo not shown)", "SYSTEM TESTED": "soybean lipoxygenase (Glycine max, UniProt P08170)", "IC50": "35 µM"}
{"COMPOUND": "O=c1ccc2ccc(OCc3cc(Cn4cnc5c(N6CCCCC6)ncnc54)on3)cc2o1 [15a]", "SYSTEM TESTED": "soybean lipoxygenase (Glycine max, UniProt P08170)", "IC50": "55 µM"}
{"COMPOUND": "Cc1cc(=O)oc2ccc(OCC3CC(Cn4cnc5c(N6CCOCC6)ncnc54)=NO3)cc12 (stereo not shown)", "SYSTEM TESTED": "soybean lipoxygenase (Glycine max, UniProt P08170)", "IC50": "60 µM"}

Task item: Form field: IC50 recorded for O=c1ccc2ccc(OCC3=NOC(n4cnc5c(N6CCOCC6)ncnc54)C3)cc2o1 (stereo not shown) [18b] with soybean lipoxygenase (Glycine max, UniProt P08170) (enter value)
Reply: 100 µM

Task item: Form field: IC50 recorded for Cc1cc(=O)oc2ccc(OC(=O)C3CC(Cn4cnc5c(N6CCOCC6)ncnc54)=NO3)cc12 (stereo not shown) with soybean lipoxygenase (Glycine max, UniProt P08170) (enter value)
Reply: 61 µM
